target: T1, 4H1854-AA
T1 chain: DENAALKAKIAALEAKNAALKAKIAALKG
run_description: two-hybrid library CCmax;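 also: natural log of median RNA to DNA barcode read ratio; higher means stronger binding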
conditions_used: mean of both orientations
For each of the binders below, state its interaction score.
One number for each entry.

Solved entries:
DENAALEAEIAALKAKNAALKAEIAALKG [4H1146-AA] ... -0.715
DEIAALKAKNAALKAKIAALEAKNAALKG [4H1000-AA] ... -1.79
DENAALKAKIAALEAENAALEAEIAALEG [4H1809-AA] ... 2.32
DENAALEAEIAALKAENAALEAKIAALEG [4H1109-AA] ... 1.5
DENAALEAEIAALEAEIAALKAENAALEG [4H1035-AA] ... -0.616

// for each binder in input: emit interaction score
1. DENAALEAEIAALEAKIAALEAKNAALKG [4H1064-AA]
2. DENAALEAKIAALKAEIAALEAENAALKG [4H1348-AA]
3. DEIAALEAENAALEAENAALEAEIAALKG [4H146-AA]
4. DENAALEAKIAALKAKIAALKAKNAALEG [4H1391-AA]

1. -1.4
2. -1.01
3. 1.2
4. -1.81
